Target: human GLP-1 receptor (human, UniProt P43220 24-463)
Assay: cell-based or functional assay
Decision: cAMP Rel. A (%) against human GLP-1 (7-37), human GLP-1 R cells >= 200% yields Met, all other cases yield Not met.

YXQGTXTSDYSIXLDKKAQXAFIEYLLETHPSSGAPPXS (Aib at 2; αMeF at 6; αMeL at 13; Lys 17 side chain AEEAc-AEEAc-γGlu-CO(CH2)18COOH; Aib at 20; Ac3c at 38; C-terminal amide (NH2)) [Compound 2] = Not met
YXQGTXTSDYSIFLDKKAQXAFIEFLLESHPSSGAPPPS (Aib at 2; αMeF at 6; Lys 17 side chain AEEAc-AEEAc-γGlu-CO(CH2)18COOH; Aib at 20; C-terminal amide (NH2)) [Compound 15] = Not met
YXQGTXTSDYSIXLDKKAQXAFIEFLLETXPSSGAPPXS (Aib at 2; αMeF at 6; αMeL at 13; Lys 17 side chain AEEAc-AEEAc-γGlu-CO(CH2)18COOH; Aib at 20; Aib at 30; Ac3c at 38; C-terminal amide (NH2)) [Compound 30] = Met
YXQGTXTSDYSIXLDKKAQXAFIEYLLETGPSSGQPPPS (Aib at 2; αMeF(2F) at 6; αMeL at 13; Lys 17 side chain AEEAc-AEEAc-γGlu-CO(CH2)18COOH; Aib at 20; C-terminal amide (NH2)) [Compound 23] = Met
YXQGTXTSDYSIFLDKKAQXAFIEFLLETGPSSGAPPPS (Aib at 2; αMeF at 6; Lys 17 side chain AEEAc-AEEAc-γGlu-CO(CH2)18COOH; Aib at 20; C-terminal amide (NH2)) [Compound 12] = Met

Moving on to another binder below.
Input: Could you please find out whether YXQGTXTSDYSIXLDKKAQXAFIEFLLEGGPSSXHPPPS (Aib at 2; αMeF at 6; αMeL at 13; Lys 17 side chain AEEAc-AEEAc-γGlu-CO(CH2)18COOH; Aib at 20; Aib at 34; C-terminal amide (NH2)) [Compound 36] has cAMP Rel. A (%) against human GLP-1 (7-37), human GLP-1 R cells that meets 200% or exceeds it?
Output: Not met

Origin of measurements: patent US20250129135A1
